pest or weed control at 250 g/ha values for the compounds below.
System: Lolium perenne (LOLPE)
Experiment: Glasshouse assay for herbicidal activity (pre- and post-emergence), percentage phytotoxicity
Type: in vivo
Settings: Lolium perenne, pre-emergence, 480 h, PRE-emergence, rate 250 g/ha, visual score 20 DAA (100%=total damage, 0%=no damage); read-out: Pre-emergence herbicidal activity (percentage phytotoxicity) LOLPE PRE
measurementKind: pest or weed control at 250 g/ha (%)

> print(dat)
                                   compound           assayedtarget  unitannotation  readoutnumber
1  C=C(C)CNC(=O)CC1CC(=O)C(c2c(C)cc(-c3ccc(Br)cn3)cc2C)C1=O (stereo not drawn)  Lolium perenne (LOLPE)               %             90
2  C#CCNC(=O)CC1CC(=O)C(c2c(C)cc(OCC(F)(F)F)cc2CC)C1=O (stereo not drawn)  Lolium perenne (LOLPE)               %            100
3  CCc1cc(C)cc(C)c1C1C(=O)CC(CC(N)=O)C1=O (stereo not drawn)  Lolium perenne (LOLPE)               %            100
4  C/C=C/c1cc(C)c(C2C(=O)CC(CC(=O)NCc3cccc(Cl)c3)C2=O)c(CC)c1 (stereo not drawn)  Lolium perenne (LOLPE)               %             80
5  CCc1cc(OCC(F)(F)F)cc(C)c1C1C(=O)CC(CC(=O)NC(C)C)C1=O (stereo not drawn)  Lolium perenne (LOLPE)               %            100
6  CCc1cc(C)cc(C)c1C1C(=O)CC(CC(=O)NC(C)(C)C)C1=O (stereo not drawn)  Lolium perenne (LOLPE)               %            100
7  CCNC(=O)CC1CC(=O)C(c2c(C)cc(-c3ncc(F)cc3F)cc2C)C1=O (stereo not drawn)  Lolium perenne (LOLPE)               %            100
8  Cc1cc(-c2ccc(C#N)cn2)cc(C)c1C1C(=O)CC(CC(=O)N2CCOCC2)C1=O (stereo not drawn)  Lolium perenne (LOLPE)               %             90
9  C#CCN(C)C(=O)CC1CC(=O)C(c2c(C)cc(/C=C/C)cc2C)C1=O (stereo not drawn)  Lolium perenne (LOLPE)               %             80

###

System: Lolium perenne (LOLPE)
Test: Glasshouse assay for herbicidal activity (pre- and post-emergence), percentage phytotoxicity
Format: in vivo
Conditions: Lolium perenne, post-emergence, 360 h, 250 g/ha; post-emergence; 15 DAA; visual assessment (100%=total damage, 0%=no damage); read-out: Post-emergence herbicidal activity (percentage phytotoxicity) LOLPE POST
measurementKind: pest or weed control at 250 g/ha (%)

> print(dat)
                                    compound  readoutnumber
 1  Cc1cc(C)c(C2C(=O)CC(CC(=O)NC3(C)CCCC3)C2=O)c(C)c1 (stereo not shown)             60
 2  Cc1cc(Br)cc(C)c1C1C(=O)CC(CC(=O)NCC2CC2)C1=O (stereo not shown)            100
 3  Cc1ccc(CNC(=O)CC2CC(=O)C(c3c(C)cc(C)cc3C)C2=O)cc1 (stereo not shown)             90
 4  COc1cccc(CNC(=O)CC2CC(=O)C(c3c(C)cc(C)cc3C)C2=O)c1 (stereo not shown)             80
 5  C=CC1(NC(=O)CC2CC(=O)C(c3c(C)cc(C)cc3C)C2=O)CC1 (stereo not shown)             90
 6  Cc1cc(C)c(C2C(=O)CC(CC(=O)NCc3ccc(F)cc3)C2=O)c(C)c1 (stereo not shown)             90
 7  Cc1cc(C)c(C2C(=O)CC(CC(=O)NCC(CF)CF)C2=O)c(C)c1 (stereo not shown)             80
 8  CCc1cccc(C)c1C1C(=O)CC(CC(=O)N2CCOCC2)C1=O (stereo not shown)             90
 9  C#CCN(C)C(=O)CC1CC(=O)C(c2c(C)cc(C)cc2C)C1=O (stereo not shown)             90
10  C=C(C)CNC(=O)CC1CC(=O)C(c2c(C)cc(C)cc2C)C1=O (stereo not shown)             90
11  Cc1cc(C)c(C2C(=O)CC(CC(=O)N[C@@H]3C[C@@H]3F)C2=O)c(C)c1 (stereo partly shown)             90
12  Cc1cc(C)c(C2C(=O)CC(CC(=O)Nc3ccc(F)cc3F)C2=O)c(C)c1 (stereo not shown)             80
13  C#Cc1cccc(CNC(=O)CC2CC(=O)C(c3c(C)cc(C)cc3C)C2=O)c1 (stereo not shown)            100
14  C/C=C/CNC(=O)CC1CC(=O)C(c2c(C)cc(-c3ncc(Cl)cc3F)cc2C)C1=O (stereo not shown)            100
15  C=C(C)CNC(=O)CC1CC(=O)C(c2c(C)cccc2CC)C1=O (stereo not shown)             90
16  Cc1cc(C)c(C2C(=O)CC(CC(=O)NC/C=C/Br)C2=O)c(C)c1 (stereo not shown)            100

###

Tested on: Alopecurus myosuroides (ALOMY)
Test: Glasshouse assay for herbicidal activity (pre- and post-emergence), percentage phytotoxicity
Type: in vivo
Details: Alopecurus myosuroides, pre-emergence, 480 h, 250 g/ha; pre-emergence; 20 DAA; visual assessment (100%=total damage, 0%=no damage); read-out: Pre-emergence herbicidal activity (percentage phytotoxicity) ALOMY PRE
measurementKind: pest or weed control at 250 g/ha (%)

> print(dat)
                                   molecule                   measurementkind  readoutnumber
1  Cc1cc(-c2ncc(Cl)cc2F)cc(C)c1C1C(=O)CC(CC(=O)NC/C=C/Cl)C1=O (centres unmarked) [Compound B162]  pest or weed control at 250 g/ha            100
2  COC(=O)c1cccc(CNC(=O)CC2CC(=O)C(c3c(C)cc(C)cc3C)C2=O)c1 (centres unmarked) [Compound B10]  pest or weed control at 250 g/ha              0
3  Cc1cc(C)c(C2C(=O)CC(CC(=O)Nc3ccc(F)cc3F)C2=O)c(C)c1 (centres unmarked) [Compound B3]  pest or weed control at 250 g/ha             60
4  Cc1cc(-c2ncc(F)cc2F)cc(C)c1C1C(=O)CC(CC(=O)NCc2ccc(F)c(F)c2)C1=O (centres unmarked) [Compound B73]  pest or weed control at 250 g/ha             90
5  CCCNC(=O)CC1CC(=O)C(c2c(C)cc(-c3ncc(Cl)cc3F)cc2C)C1=O (centres unmarked) [Compound B144]  pest or weed control at 250 g/ha            100
6  Cc1cc(-c2ncc(F)cc2F)cc(C)c1C1C(=O)CC(CC(=O)NCc2cccc(Cl)c2)C1=O (centres unmarked) [Compound B33]  pest or weed control at 250 g/ha            100
7  Cc1cc(-c2ncc(Cl)cc2F)cc(C)c1C1C(=O)CC(CC(=O)NCc2cccc(F)c2)C1=O (centres unmarked) [Compound B129]  pest or weed control at 250 g/ha             90
8  Cc1cc(C)c(C2C(=O)CC(CC(=O)NCCF)C2=O)c(C)c1 (centres unmarked) [Compound B61]  pest or weed control at 250 g/ha             70

###

Tested on: Lolium perenne (LOLPE)
Test: Glasshouse assay for herbicidal activity (pre- and post-emergence), percentage phytotoxicity
Assay type: in vivo
Settings: Lolium perenne, post-emergence, 360 h, POST-emergence, rate 250 g/ha, visual score 15 DAA (100%=total damage, 0%=no damage); read-out: Post-emergence herbicidal activity (percentage phytotoxicity) LOLPE POST
measurementKind: pest or weed control at 250 g/ha (%)

> print(dat)
                                   compound  readoutnumber
1  C/C=C/c1cc(C)c(C2C(=O)CC(CC(=O)NCc3cccc(F)c3)C2=O)c(CC)c1 (stereo not shown) [Compound B188]             90
2  COc1ccc(CNC(=O)CC2CC(=O)C(c3c(C)cc(-c4ccc(C#N)cn4)cc3C)C2=O)cc1 (stereo not shown) [Compound B324]             80
3  C=CCNC(=O)CC1CC(=O)C(c2c(C)cc(C)cc2CC)C1=O (stereo not shown) [Compound B256]            100
4  Cc1cc(-c2ncc(F)cc2F)cc(C)c1C1C(=O)CC(CC(=O)N(C)C)C1=O (stereo not shown) [Compound B265]            100
5  Cc1cc(Br)cc(C)c1C1C(=O)CC(CC(=O)NC/C=C/Cl)C1=O (stereo not shown) [Compound B176]             80
6  Cc1cc(-c2ncc(C#N)cn2)cc(C)c1C1C(=O)CC(CC(=O)NCc2cccc(Cl)c2)C1=O (stereo not shown) [Compound B284]            100
7  C#CCN(C)C(=O)CC1CC(=O)C(c2c(C)cc(OCC(F)(F)F)cc2C)C1=O (stereo not shown) [Compound B213]             90

Reference for the values: patent US10206394B2
